B1: Hairpin Ribozyme (parent)
chain: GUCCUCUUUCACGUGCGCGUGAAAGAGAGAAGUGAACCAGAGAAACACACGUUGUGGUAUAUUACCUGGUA

Variants of: B1
assay remarks: self-cleavage, relative activity (ratio to wild type); higher = more cleavage; co-transcriptional
Catalogue of self-cleavage values
Provide a numeric answer; units are not to be included.

Consider the following illustrative entries.
variant name: U9C C16A
self-cleavage: 0.761

variant name: G17A A61C
self-cleavage: 0.199

variant name: G40U U63G
self-cleavage: 0.104

variant name: C6A A61C
self-cleavage: 0.225

variant name: U58C U62C
self-cleavage: 0.369

We next turn to a different variant, shown below.
Problem: Specify reported self-cleavage for the variant shown: C4U G68U
Result: 0.109
